All figures here come from patent US20240116845A1.

Hi there, I'd appreciate the recorded inhibition at 3.3 µM for every entry that follows.
Test system: SW480 (colon cancer)
Assay text: Antiproliferative activity, CCK-8 cell viability
Assay type: cell-based
Experimental parameters: Homo sapiens, compound concentration of 3.3 μM, 72 h, read-out: Inhibition of Cancerous Cells, SW480

Guide cases for inhibition at 3.3 µM, answers given:
Quick note, inhibition at 3.3 µM for CC1=C(CC(=O)O)c2cc(F)cc(F)c2/C1=C\c1ccc(Oc2ccc(F)cc2)cc1 landed at < 30%

Quick note, inhibition at 3.3 µM for CC1=C(CC(=O)O)c2cc(F)ccc2/C1=C\c1cccc(COc2ccc(F)c(F)c2)c1 landed at < 30%

Quick note, inhibition at 3.3 µM for CC1=C(CC(=O)O)c2cc(F)ccc2/C1=C\c1ccc(CN(C)c2ccccc2)cc1 landed at ≥ 50%

Quick note, inhibition at 3.3 µM for COc1ccc2c(c1)/C(=C\c1ccc(CN(C)c3ccccc3)cc1)C(C)=C2CC(=O)O landed at ≥ 50%

Batch of 3 compounds: report inhibition at 3.3 µM for each.
1. CC1=C(CC(=O)O)c2cc(F)ccc2/C1=C\c1cccc(Oc2ccc(Cl)cc2)c1
2. CC1=C(CC(=O)O)c2cc(F)ccc2/C1=C\c1cccc(COc2ccc(F)cc2F)c1
3. CC1=C(CC(=O)O)c2c(F)cc(F)cc2/C1=C\c1cccc(Oc2ccccc2)c1

1. ≥ 50%
2. ≥ 50%
3. 30 to 50%
